# assayedTarget: PgUGT94B1 (Panax ginseng, UniProt A0A0A6ZFY4)
# Construct: GST (N); made in house; host or cells: E. coli BL21-CodonPlus (DE3)-RIL
# Sequence (A0A0A6ZFY4 1-442): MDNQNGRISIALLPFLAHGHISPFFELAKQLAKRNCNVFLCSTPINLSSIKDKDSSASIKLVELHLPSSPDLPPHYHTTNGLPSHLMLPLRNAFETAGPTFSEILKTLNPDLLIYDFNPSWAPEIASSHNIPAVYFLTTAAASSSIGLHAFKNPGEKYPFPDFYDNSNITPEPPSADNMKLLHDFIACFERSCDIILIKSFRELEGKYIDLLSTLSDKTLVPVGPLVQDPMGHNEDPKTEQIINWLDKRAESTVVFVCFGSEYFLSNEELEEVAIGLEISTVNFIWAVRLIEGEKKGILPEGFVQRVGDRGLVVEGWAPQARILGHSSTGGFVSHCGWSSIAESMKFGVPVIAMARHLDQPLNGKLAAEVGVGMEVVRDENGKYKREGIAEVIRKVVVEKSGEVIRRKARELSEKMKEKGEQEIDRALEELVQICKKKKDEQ
# assay: In vitro glycosyltransferase assay with purified recombinant PgUGT94B1 and UDP-glucose
# Format: biochemical
# assayConditions: HPLC; 30 μg enzyme, 5 mM ginsenoside, 50 mM UDP-glucose, 35° C., 12 hours
endpointName: ginsenoside into which the substrate is converted by PgUGT94B1

| compound | valueMeasured |
| --- | --- |
| CC(C)=CCC[C@](C)(O[C@@H]1O[C@H](CO)[C@@H](O)[C@H](O)[C@H]1O)[C@H]1CC[C@]2(C)[C@@H]1[C@H](O)C[C@@H]1[C@@]3(C)CC[C@H](O[C@@H]4O[C@H](CO)[C@@H](O)[C@H](O)[C@H]4O)C(C)(C)[C@@H]3CC[C@]12C [ginsenoside F2] | Rd |
| CC(C)=CCCC(C)(O)[C@H]1CC[C@]2(C)[C@@H]1[C@H](O)C[C@@H]1[C@@]3(C)CC[C@H](O)C(C)(C)[C@@H]3CC[C@]12C (stereo in doubt) [PPD, Protopanaxadiol] | did not convert |
| CC(C)=CCC[C@](C)(O[C@@H]1O[C@H](CO)[C@@H](O)[C@H](O)[C@H]1O)[C@H]1CC[C@]2(C)[C@@H]1[C@H](O)C[C@@H]1[C@@]3(C)CC[C@H](O)C(C)(C)[C@@H]3CC[C@]12C [C-K, Compound K] | did not convert |
